System: Staphylococcus aureus
Test: Antibacterial activity against methicillin-resistant Staphylococcus aureus Y069 incubated for overnight measured after 20 to 24 hrs by broth microdilution method
Assay type: functional
Give MIC for every item shown.
Your answer is read as µg/mL, so omit the unit and give the number.

State its MIC: OC(CNCCc1c[nH]c2ccc(Cl)cc12)Cn1c2ccc(Br)cc2c2cc(Br)ccc21 (racemic)
1

State its MIC: OC(CNCCc1c[nH]c2cc(F)ccc12)Cn1c2ccc(Cl)cc2c2cc(Cl)ccc21 (racemic)
1

State its MIC: OC(CNCCc1cccc(Cl)c1)Cn1c2ccc(Cl)cc2c2cc(Cl)ccc21 (stereo not given)
4

State its MIC: OC(CNc1ccc(C(F)(F)F)cc1)Cn1c2ccc(Cl)cc2c2cc(Cl)ccc21 (stereo not given)
1

State its MIC: OC(CNCCc1c[nH]c2cc(F)ccc12)Cn1c2ccc(Br)cc2c2cc(Br)ccc21 (stereo not given)
1

###

Give MIC for every item shown.
Test system: Staphylococcus aureus
Assay: Antibacterial activity against methicillin-resistant Staphylococcus aureus L166 incubated for overnight measured after 20 to 24 hrs by broth microdilution method
Assay type: functional

State its MIC: OC(CNCCc1cccc(Cl)c1)Cn1c2ccc(Cl)cc2c2cc(Cl)ccc21 (stereo not given)
4 µg/mL

State its MIC: OC(CNCCc1c[nH]c2cc(F)ccc12)Cn1c2ccc(Br)cc2c2cc(Br)ccc21 (stereo not given)
1 µg/mL

State its MIC: OC(CNCCc1c[nH]c2ccc(Cl)cc12)Cn1c2ccc(Br)cc2c2cc(Br)ccc21 (racemic)
1 µg/mL

State its MIC: OC(CNc1ccc(C(F)(F)F)cc1)Cn1c2ccc(Cl)cc2c2cc(Cl)ccc21 (stereo not given)
1 µg/mL

State its MIC: OC(CNCCc1c[nH]c2cc(F)ccc12)Cn1c2ccc(Cl)cc2c2cc(Cl)ccc21 (racemic)
1 µg/mL

###

Give MIC for every item shown.
Test system: Staphylococcus aureus
Test: Antibacterial activity against methicillin-resistant Staphylococcus aureus N043 incubated for overnight measured after 20 to 24 hrs by broth microdilution method
Assay type: functional
Your answer is read as µg/mL, so omit the unit and give the number.

Retrieve MIC on Staphylococcus aureus; query OC(CNc1ccc(C(F)(F)F)cc1)Cn1c2ccc(Cl)cc2c2cc(Cl)ccc21 (stereo not given)
1

Retrieve MIC on Staphylococcus aureus; query OC(CNCCc1c[nH]c2cc(F)ccc12)Cn1c2ccc(Cl)cc2c2cc(Cl)ccc21 (racemic)
1

Retrieve MIC on Staphylococcus aureus; query OC(CNCCc1c[nH]c2ccc(Cl)cc12)Cn1c2ccc(Br)cc2c2cc(Br)ccc21 (racemic)
1

Retrieve MIC on Staphylococcus aureus; query OC(CNCCc1cccc(Cl)c1)Cn1c2ccc(Cl)cc2c2cc(Cl)ccc21 (stereo not given)
4

Retrieve MIC on Staphylococcus aureus; query OC(CNCCc1c[nH]c2cc(F)ccc12)Cn1c2ccc(Br)cc2c2cc(Br)ccc21 (stereo not given)
1

###

System: Acinetobacter baumannii
Assay: Antibacterial activity against Acinetobacter baumannii ATCC 19606 incubated for overnight measured after 20 to 24 hrs by broth microdilution method
Type: functional
EXPERIMENTAL READOUT: MIC (µg/mL)
Your answer is read as µg/mL, so omit the unit and give the number.

State its MIC: OC(CNCCc1c[nH]c2cc(F)ccc12)Cn1c2ccc(Cl)cc2c2cc(Cl)ccc21 (racemic)
8

State its MIC: OC(CNCCc1c[nH]c2cc(F)ccc12)Cn1c2ccc(Br)cc2c2cc(Br)ccc21 (stereo not given)
16

###

Tested on: Staphylococcus aureus
Test: Antibacterial activity against methicillin-resistant Staphylococcus aureus M013 incubated for overnight measured after 20 to 24 hrs by broth microdilution method
Format: functional
EXPERIMENTAL READOUT: MIC (µg/mL)
Your answer is read as µg/mL, so omit the unit and give the number.

Retrieve MIC on Staphylococcus aureus; query OC(CNCCc1cccc(Cl)c1)Cn1c2ccc(Cl)cc2c2cc(Cl)ccc21 (stereo unspecified)
4

Retrieve MIC on Staphylococcus aureus; query OC(CNCCc1c[nH]c2ccc(Cl)cc12)Cn1c2ccc(Br)cc2c2cc(Br)ccc21 (racemic)
1

Retrieve MIC on Staphylococcus aureus; query OC(CNCCc1c[nH]c2cc(F)ccc12)Cn1c2ccc(Cl)cc2c2cc(Cl)ccc21 (racemic)
1

Retrieve MIC on Staphylococcus aureus; query OC(CNCCc1c[nH]c2cc(F)ccc12)Cn1c2ccc(Br)cc2c2cc(Br)ccc21 (stereo unspecified)
1

Retrieve MIC on Staphylococcus aureus; query OC(CNc1ccc(C(F)(F)F)cc1)Cn1c2ccc(Cl)cc2c2cc(Cl)ccc21 (stereo unspecified)
1

###

System: Staphylococcus aureus
Assay: Antibacterial activity against methicillin-resistant Staphylococcus aureus C217 incubated for overnight measured after 20 to 24 hrs by broth microdilution method
Assay type: functional
EXPERIMENTAL READOUT: MIC (mg/L)
Your answer is read as mg/L, so omit the unit and give the number.

State its MIC: OC(CNCCc1c[nH]c2ccc(Cl)cc12)Cn1c2ccc(Br)cc2c2cc(Br)ccc21 (racemic)
1

State its MIC: OC(CNCCc1cccc(Cl)c1)Cn1c2ccc(Cl)cc2c2cc(Cl)ccc21 (stereo not given)
4

State its MIC: OC(CNCCc1c[nH]c2cc(F)ccc12)Cn1c2ccc(Cl)cc2c2cc(Cl)ccc21 (racemic)
1

State its MIC: OC(CNc1ccc(C(F)(F)F)cc1)Cn1c2ccc(Cl)cc2c2cc(Cl)ccc21 (stereo not given)
1

State its MIC: OC(CNCCc1c[nH]c2cc(F)ccc12)Cn1c2ccc(Br)cc2c2cc(Br)ccc21 (stereo not given)
1

###

Test system: Acinetobacter baumannii
Assay: Antibacterial activity against Acinetobacter baumannii ATCC 19606 incubated for overnight measured after 20 to 24 hrs by broth microdilution method
Type: functional
EXPERIMENTAL READOUT: MIC

State its MIC: OC(CNCCc1cccc(Cl)c1)Cn1c2ccc(Cl)cc2c2cc(Cl)ccc21 (stereo not drawn)
> 64 µg/mL

State its MIC: OC(CNc1ccc(C(F)(F)F)cc1)Cn1c2ccc(Cl)cc2c2cc(Cl)ccc21 (stereo not drawn)
> 64 µg/mL

State its MIC: OC(CNCCc1c[nH]c2ccc(Cl)cc12)Cn1c2ccc(Br)cc2c2cc(Br)ccc21 (racemic)
> 64 µg/mL
